Where do these numbers come from? They come from paper PMC11647681.

# protocol.summary: in vitro
# test.context: human
endpoint.name: CC50

> print(dat)
                            smiles.notation  readout.value
1  CN1CCC(Nc2ccnc3ccc(-c4ccc(C(=O)NCCO)nc4)nc23)CC1        > 50 µM

Give the reported CC50 for this compound. `CNC(=O)c1ccc(-c2ccc3nccc(NC4CCNCC4)c3n2)cn1`
> 50 µM

Give the reported CC50 for this compound. `Cn1ccc(-c2ccc3nccc(N[C@@H]4CCNC4)c3n2)cc1=O`
> 50 µM

Give the reported CC50 for this compound. `COc1ccc(-c2ccc3nccc(N[C@@H]4CCNC4)c3n2)cn1`
26.3 µM

Give the reported CC50 for this compound. `CS(=O)(=O)c1cccc(-c2ccc3nccc(N4CCNCC4)c3n2)c1`
> 50 µM

---

Recorded measurements of solubility, one per entry
# protocol.summary: physchem
Write the value in µM as a bare number.

> print(dat)
                            smiles.notation  unit.tag  readout.value
1  Cn1ccc(-c2ccc3nccc(N[C@@H]4CCNC4)c3n2)cc1=O        µM            195

Give the reported solubility for this compound. `CS(=O)(=O)c1cccc(-c2ccc3nccc(N4CCNCC4)c3n2)c1`
180

Give the reported solubility for this compound. `CNC(=O)c1ccc(-c2ccc3nccc(NC4CCNCC4)c3n2)cn1`
175

Give the reported solubility for this compound. `CN1CCC(Nc2ccnc3ccc(-c4ccc(C(=O)NCCO)nc4)nc23)CC1`
200

Give the reported solubility for this compound. `COc1ccc(-c2ccc3nccc(N[C@@H]4CCNC4)c3n2)cn1`
190

---

# assay.system: SARS-CoV-2 PLpro (Severe acute respiratory syndrome coronavirus 2)
endpoint.name: Ki (µM)
Write the value in µM as a bare number.

Quote Ki with test system SARS-CoV-2 PLpro (Severe acute respiratory syndrome coronavirus 2) for `Cn1ccc(-c2ccc3nccc(N[C@@H]4CCNC4)c3n2)cc1=O`
22.4

---

Quick note: these are pIC50 numbers for system: SARS-CoV-2 PLpro (Severe acute respiratory syndrome coronavirus 2)
Scale: pIC50 equals -log10([C]), with [C] in mol/L.

> print(dat)
                                   molecule  readout.value
1  CNC(=O)c1ccc(-c2ccc3nccc(NC4CCNCC4)c3n2)cn1           4.40
2  CS(=O)(=O)c1cccc(-c2ccc3nccc(N4CCNCC4)c3n2)c1           4.26
3  Cn1ccc(-c2ccc3nccc(N[C@@H]4CCNC4)c3n2)cc1=O           4.13
4           O=C(NCc1cccc(F)c1)c1ncc2ccccn12           3.71
5  NCCNc1nccc2[nH]c(-c3ccc(F)c(F)c3)nc12 [Compound 4, NCCNc1nccc2[nH]c(nc12)-c1ccc(c(c1)F)F]           3.89
6  CN1CCC(Nc2ccnc3ccc(-c4ccc(C(=O)NCCO)nc4)nc23)CC1           4.10

The record that follows has no pIC50 shown yet.
Quote pIC50 with test system SARS-CoV-2 PLpro (Severe acute respiratory syndrome coronavirus 2) for CCN(CC)Cc1cc(Nc2nc3ccccc3[nH]2)ccc1O [Compound 3, CCN(CC)Cc1cc(ccc1O)Nc1nc2ccccc2[nH]1]
3.90

---

# protocol.summary: in vitro
# test.context: chlorocebus sabaeus
Recorded measurements of CC50, one per entry

Guide cases for CC50, answers given:
> print(dat)
                            smiles.notation  endpoint.name  readout.value
1  COc1ccc(-c2ccc3nccc(N[C@@H]4CCNC4)c3n2)cn1           CC50        7.47 µM
2  CNC(=O)c1ccc(-c2ccc3nccc(NC4CCNCC4)c3n2)cn1           CC50        47.3 µM
3  CN1CCC(Nc2ccnc3ccc(-c4ccc(C(=O)NCCO)nc4)nc23)CC1           CC50        > 50 µM
4  CS(=O)(=O)c1cccc(-c2ccc3nccc(N4CCNCC4)c3n2)c1           CC50        43.6 µM

The record that follows has no CC50 shown yet.
Give the reported CC50 for this compound. `Cn1ccc(-c2ccc3nccc(N[C@@H]4CCNC4)c3n2)cc1=O`
23.8 µM

---

# assay.system: SARS-CoV-2 PLpro (Severe acute respiratory syndrome coronavirus 2, UniProt P0DTD1)
endpoint.name: pIC50
Scale: pIC50 equals -log10([C]), with [C] in mol/L.

Guide cases for pIC50, answers given:
> print(dat)
                                   molecule                              assay.system  readout.value
1  O=C1CN(C(=O)CNC(=O)c2ccc3c(c2)B(O)OC3)CCN1  SARS-CoV-2 PLpro (Severe acute respiratory syndrome coronavirus 2, UniProt P0DTD1)           3.86
2  COc1ccc(-c2ccc3nccc(N[C@@H]4CCNC4)c3n2)cn1  SARS-CoV-2 PLpro (Severe acute respiratory syndrome coronavirus 2, UniProt P0DTD1)           4.82

Give the reported pIC50 for this molecule. CCN(CCNc1nc2ccccc2[nH]1)Cc1cc(Cl)ccc1O [Compound 2, CCN(CCNc1nc2ccccc2[nH]1)Cc1cc(ccc1O)Cl]
3.99
